# Target Under Test: T1, monovalent hVISTA-ECD (human VISTA extracellular domain with His tail) (human, UniProt Q9H7M9 33-193)
# T1 construct: analyte flowed over captured antibody; also called huVISTA-His
# T1 sequence (Q9H7M9 other isoform, or with tags, fused parts or gaps limits assumed): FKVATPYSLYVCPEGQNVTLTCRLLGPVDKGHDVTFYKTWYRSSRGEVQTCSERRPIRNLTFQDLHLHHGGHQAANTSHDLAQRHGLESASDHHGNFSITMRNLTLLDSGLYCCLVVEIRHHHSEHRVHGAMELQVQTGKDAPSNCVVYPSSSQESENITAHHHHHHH
# Assay Info: SPR
A collection of binders and their measured KD ratio (pH 7.4/pH 6.0)

Past entries and their recorded results:
Binder	Measurement
P1-064502 (41F11_Vk_R96YA64G) (antibody, V domains shown, also called P1-064502-1) VH: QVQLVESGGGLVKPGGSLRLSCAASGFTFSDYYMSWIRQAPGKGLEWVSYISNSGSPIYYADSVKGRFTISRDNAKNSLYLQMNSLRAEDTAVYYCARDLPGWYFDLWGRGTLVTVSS VL: EIVLTQSPATLSLSPGERATLSCRASQSVSSYLAWYQQKPGQAPRLLIYDASNRATGIPARFSGSGSGTDFTLTISSLEPEDFAVYYCQQRNNWPYTFGQGTKVEIK	0.5
P1-064472 (41F11_VH_F27E) (antibody, V domains shown, Kabat positions; also called P1-064472-1) VH: QVQLVESGGGLVKPGGSLRLSCAASGETFSDYYMSWIRQAPGKGLEWVSYISNSGSPIYYADSVKGRFTISRDNAKNSLYLQMNSLRAEDTAVYYCARDLPGWYFDLWGRGTLVTVSS VL: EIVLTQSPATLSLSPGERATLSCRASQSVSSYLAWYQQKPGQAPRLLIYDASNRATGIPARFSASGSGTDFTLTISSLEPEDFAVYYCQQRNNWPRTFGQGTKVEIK	0.2
P1-065318 (41F11_VH_L96E VK A64G) (antibody, V domains shown, Kabat positions; also called P1-065318-1) VH: QVQLVESGGGLVKPGGSLRLSCAASGFTFSDYYMSWIRQAPGKGLEWVSYISNSGSPIYYADSVKGRFTISRDNAKNSLYLQMNSLRAEDTAVYYCARDEPGWYFDLWGRGTLVTVSS VL: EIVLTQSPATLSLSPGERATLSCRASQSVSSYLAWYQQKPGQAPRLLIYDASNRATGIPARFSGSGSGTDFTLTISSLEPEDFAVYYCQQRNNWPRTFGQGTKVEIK	4.91

Proceeding to the next binder to report its KD ratio (pH 7.4/pH 6.0).
Using the record for P1-064528 (41F11_VH_D31E/Y50W/S55E/L96E/Y100E) (antibody, V domains shown, Kabat positions; also called P1-064528-1) VH: QVQLVESGGGLVKPGGSLRLSCAASGFTFSEYYMSWIRQAPGKGLEWVSWISNSGEPIYYADSVKGRFTISRDNAKNSLYLQMNSLRAEDTAVYYCARDEPGWEFDLWGRGTLVTVSS VL: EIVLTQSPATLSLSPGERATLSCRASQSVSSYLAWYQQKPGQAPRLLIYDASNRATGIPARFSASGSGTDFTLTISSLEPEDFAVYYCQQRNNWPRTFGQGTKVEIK , report its KD ratio (pH 7.4/pH 6.0).
4.6
